Experiment: Pharmacokinetics of NC-758-1 in mild to moderate Alzheimer's Disease patients, 12 weeks BID (Example 10)
Assay type: in vivo
Conditions: human, plasma, oral, 50 mg, Alzhemed (NC-758-1) 50 mg BID, Week 12 (repeated), AD patients, mean
property_name: Cmax (µg/mL)
Expressed in µg/mL, but write only the number.

Record summary for NCCCS(=O)(=O)O [3-APS, 3-amino-1-propanesulfonic acid] : reported Cmax = 0.451

----------
Test: Pharmacokinetics of NC-758-1 in mild to moderate Alzheimer's Disease patients, 12 weeks BID (Example 10)
Type: in vivo
Conditions: human, plasma, oral, 100 mg, Alzhemed (NC-758-1) 100 mg BID, Week 12 (repeated), AD patients, mean; read-out: AUC0-t (AUCss for Week 12)
property_name: AUC(0-t) (ng·h/mL)
Expressed in ng·h/mL, but write only the number.

Record summary for NCCCS(=O)(=O)O [3-APS, 3-amino-1-propanesulfonic acid] : reported AUC(0-t) = 2590

----------
Assay: Pharmacokinetics of NC-758-1 in mild to moderate Alzheimer's Disease patients, 12 weeks BID (Example 10)
Format: in vivo
Conditions: human, plasma, oral, 150 mg, Alzhemed (NC-758-1) 150 mg BID, Week 0 (single dose), AD patients, median
property_name: Tmax

Record summary for NCCCS(=O)(=O)O : reported Tmax = ~6 h

----------
Assay: Pharmacokinetics of NC-758-1 in mild to moderate Alzheimer's Disease patients, 12 weeks BID (Example 10)
Assay type: in vivo
Conditions: human, plasma, oral, 50 mg, Alzhemed (NC-758-1) 50 mg BID, Week 0 (single dose), AD patients, median
Method: In the following examples and elsewhere herein, terms are as defined below. […] A total of fifty-eight (58) mild to moderate AD patients (MMSE scores=13 to 26) were enrolled from 6 centers in the United States. […] Each patient was evaluated on 6 occasions at screening, baseline [Week 0], weeks 2, 4, 8 and 12. […]
property_name: Tmax

Record summary for NCCCS(=O)(=O)O : reported Tmax = ~6 h

----------
Assay: Part I: multiple rising oral dose pharmacokinetics of NC-758 in healthy young and elderly subjects (Example 8)
Format: in vivo, human
Settings: male, human, plasma, oral, 100 mg, NC-758 100 mg BID, Day 12, young (18-45 years) male subjects, fasted, median; read-out: Tmax
property_name: Tmax (h)
Expressed in h, but write only the number.

Record summary for NCCCS(=O)(=O)O [3-APS, 3-amino-1-propanesulfonic acid] : reported Tmax = 2.5

----------
Assay: Pharmacokinetics of NC-758-1 in mild to moderate Alzheimer's Disease patients, 12 weeks BID (Example 10)
Type: in vivo
Details: human, plasma, oral, 150 mg, Alzhemed (NC-758-1) 150 mg BID, Week 12 (repeated), AD patients, mean
property_name: Cmax (ng/mL)
Expressed in ng/mL, but write only the number.

Record summary for NCCCS(=O)(=O)O : reported Cmax = 639

----------
Experiment: Part I: multiple rising oral dose pharmacokinetics of NC-758 in healthy young and elderly subjects (Example 8)
Type: in vivo, human
Conditions: both sexes, human, plasma, oral, 200 mg, NC-758 200 mg BID, Day 12, elderly (≧55 years) male and female subjects, fasted, median; read-out: Tmax
property_name: Tmax (h)
Expressed in h, but write only the number.

Record summary for NCCCS(=O)(=O)O : reported Tmax = 5

----------
Assay: Pharmacokinetics of NC-758-1 in mild to moderate Alzheimer's Disease patients, 12 weeks BID (Example 10)
Assay type: in vivo
Conditions: human, plasma, oral, 150 mg, Alzhemed (NC-758-1) 150 mg BID, Week 12 (repeated), AD patients, mean; read-out: AUC0-t (AUCss for Week 12)
property_name: AUC(0-t)
In your response, put the unit directly after the numeric value.

Record summary for NCCCS(=O)(=O)O : reported AUC(0-t) = 3570 ng·h/mL

----------
Experiment: Single rising oral dose pharmacokinetics of NC-758 in healthy young and elderly male volunteers (Example 7)
Format: in vivo, human
Conditions: human, plasma; NC-758 single oral 100 mg, young (18-45 years) male subjects, fasted, median; read-out: Tmax
property_name: Tmax
In your response, put the unit directly after the numeric value.

Record summary for NCCCS(=O)(=O)O : reported Tmax = 5 h

----------
Assay: Single rising oral dose pharmacokinetics of NC-758 in healthy young and elderly male volunteers (Example 7)
Type: in vivo, human
Details: human, plasma; NC-758 single oral 200 mg, elderly (>55 years) male subjects, fasted; calculated for one individual only
property_name: AUC(0-inf) (ng·h/mL)
Expressed in ng·h/mL, but write only the number.

Record summary for NCCCS(=O)(=O)O [3-APS, 3-amino-1-propanesulfonic acid] : reported AUC(0-inf) = 5760

----------
Test: Pharmacokinetics of NC-758-1 in mild to moderate Alzheimer's Disease patients, 12 weeks BID (Example 10)
Assay type: in vivo
Conditions: human, plasma, oral, 100 mg, Alzhemed (NC-758-1) 100 mg BID, Week 12 (repeated), AD patients, median
property_name: Tmax (h)
Expressed in h, but write only the number.

Record summary for NCCCS(=O)(=O)O : reported Tmax = 3.5

----------
Assay: Part I: multiple rising oral dose pharmacokinetics of NC-758 in healthy young and elderly subjects (Example 8)
Format: in vivo, human
Conditions: male, human, plasma, oral, 100 mg, NC-758 100 mg BID, Day 1, young (18-45 years) male subjects, fasted, median; read-out: Tmax
property_name: Tmax

Record summary for NCCCS(=O)(=O)O : reported Tmax = 6 h

----------
Assay: Pharmacokinetics of NC-758-1 in mild to moderate Alzheimer's Disease patients, 12 weeks BID (Example 10)
Type: in vivo
Settings: human, plasma, oral, 100 mg, Alzhemed (NC-758-1) 100 mg BID, Week 0 (single dose), AD patients, mean; read-out: AUC0-t
property_name: AUC(0-t)

Record summary for NCCCS(=O)(=O)O : reported AUC(0-t) = ~2.47 µg·h/mL

----------
Assay: Pharmacokinetics of NC-758-1 in mild to moderate Alzheimer's Disease patients, 12 weeks BID (Example 10)
Format: in vivo
Settings: human, plasma, oral, 100 mg, Alzhemed (NC-758-1) 100 mg BID, Week 0 (single dose), AD patients, median
property_name: Tmax

Record summary for NCCCS(=O)(=O)O : reported Tmax = ~4.7 h

----------
Assay: Pharmacokinetics of NC-758-1 in mild to moderate Alzheimer's Disease patients, 12 weeks BID (Example 10)
Assay type: in vivo
Settings: human, plasma, oral, 150 mg, Alzhemed (NC-758-1) 150 mg BID, Week 0 (single dose), AD patients, mean; only patients with estimable elimination rate constant
property_name: AUC(0-inf)

Record summary for NCCCS(=O)(=O)O : reported AUC(0-inf) = ~3420 ng·h/mL
